Where do the numbers come from? From ChEMBL document CHEMBL3853294.

Experiment: Growth inhibition of human BT474 cells at 10 uM after 72 hrs by cell titer-glo based luminescence assay
Set-up: species or system BT-474
Conditions: read-out: GI
Class boundaries, taken from values of inhibition at 72 h, 10 µM, are as follows: lower = under 10%, middle = from 10% up to 20%, upper = 20% and over

COc1cc(/C=C/C(=O)NC(NC(=S)Nc2ccccc2)C2CC2)cc(OC)c1OC (configuration not stated) | middle
COc1cc(/C=C/C(=O)NC(CC(C)C)NC(=S)Nc2ccccc2)cc(OC)c1OC (configuration not stated) | lower
CC(C)CC(NC(=O)/C=C/c1ccccc1)NC(=S)Nc1ccccc1 (configuration not stated) | middle
Cc1ccccc1NC(=S)NC(NC(=O)/C=C/c1ccccc1)C(C)(C)C (configuration not stated) | lower
COc1cc(/C=C/C(=O)NC(NC(=O)Nc2ccccn2)C(C)C)cc(OC)c1OC (configuration not stated) | middle

Given Cc1ccccc1NC(=S)NC(CC(C)(C)C)NC(=O)/C=C/c1ccccc1 (configuration not stated) , name the class its inhibition at 72 h, 10 µM places it in.
middle

Given COc1cc(/C=C/C(=O)NC(CC(C)(C)C)NC(=S)Nc2ccccn2)cc(OC)c1OC (configuration not stated) , name the class its inhibition at 72 h, 10 µM places it in.
upper

Given CNC(=S)NC(CC(C)C)NC(=O)/C=C/c1cc(OC)c(OC)c(OC)c1 (configuration not stated) , name the class its inhibition at 72 h, 10 µM places it in.
middle
